Just for reference, patent US10202378B2 is where these values come from.

The entries below come with measured IC50 values attached.
measurement.target: TAF1-BD2 (Homo sapiens, UniProt P21675)
experiment.description: TAF1-BD2 TR-FRET Binding Assay
experimental.context: read-out: TAF1-BD2 HTRF IC50
Express it in nM; write the number only.

>>> df
                                   compound                       measurement_target  observable  recorded_result
0  Cc1cccc(COC(=O)c2c(C)[nH]c3c(=O)n(C)cc(C#CC(C)(C)O)c23)c1 [Example 118]  TAF1-BD2 (Homo sapiens, UniProt P21675)        IC50             38.9
1  CCOC(=O)c1c(C)[nH]c2c(=O)n(C)cc(C#CC(C)(C)OCc3ccccc3)c12 [Example 25]  TAF1-BD2 (Homo sapiens, UniProt P21675)        IC50              373
2  CCOC(=O)c1c(C)[nH]c2c(=O)n(C)cc(C#CC3(O)CCOCC3)c12 [Example 88]  TAF1-BD2 (Homo sapiens, UniProt P21675)        IC50             98.6
3  Cc1[nH]c2c(=O)n(C)cc(C#CC(C)(C)O)c2c1C(=O)OCc1ccccc1C#N [Example 110]  TAF1-BD2 (Homo sapiens, UniProt P21675)        IC50             29.4
4  Cc1cc([C@](C)(O)C#Cc2cn(C)c(=O)c3[nH]c(C)c(-c4nnc(C)o4)c23)no1 [Example 193]  TAF1-BD2 (Homo sapiens, UniProt P21675)        IC50              153

Given the entry Cc1[nH]c2c(=O)n(C)cc(C#CC(C)(C)O)c2c1C(=O)OCc1ccccc1C(F)(F)F [Example 116] , report its measured IC50.
27.7

Param item = CCOC(=O)c1c(C)[nH]c2c(=O)n(C)cc(C#C[C@@H]3CCC[C@H]3O)c12 (stereo in doubt) [Example 83] ; retrieve measured IC50.
302

What value of IC50 has been reported for the following compound? C=CCn1cc(C#CC(C)(C)O)c2c(C(=O)OCC)c(C)[nH]c2c1=O [Example 51]
227

Using the record for CCOC(=O)c1c(C)[nH]c2c(=O)n(C)cc(C#C[C@@H]3CCCC[C@H]3O)c12 (stereo in doubt) [Example 84] , report its IC50.
187

Need IC50, item CCOC(=O)c1c(C)[nH]c2c(=O)n(C)cc(C#CC(C)(C)O)c12 [Example 78]
38.5
